target: GABA-A receptor; anion channel; experiment: GPCRScan assay: inhibition of GABAA/BZP
readout label: pKi
Scale explanation: pKi corresponds to minus log10 of a concentration expressed in moles per litre.

So what's the measured pKi for this one? C[C@H](O)c1nc(Cn2nc(-c3ccc(Cl)cc3)n(C[C@H](O)C(F)(F)F)c2=O)nn1-c1cccc(Cl)c1
5.58

----------
biological target: UniProt P37288; assay: Inhibition of Vasopressin V1A at compound concentration of 10.0 uM in the Eurofins-Panlabs radioligand binding assay (Eurofins_assay_287530); design: ligand concentration 0.03 nM, non-specific ligand with concentration 1 uM (Arg8)-Vasopressin, incubation time 2 h, incubation temperature 25 C
Sequence (P37288 whole entry): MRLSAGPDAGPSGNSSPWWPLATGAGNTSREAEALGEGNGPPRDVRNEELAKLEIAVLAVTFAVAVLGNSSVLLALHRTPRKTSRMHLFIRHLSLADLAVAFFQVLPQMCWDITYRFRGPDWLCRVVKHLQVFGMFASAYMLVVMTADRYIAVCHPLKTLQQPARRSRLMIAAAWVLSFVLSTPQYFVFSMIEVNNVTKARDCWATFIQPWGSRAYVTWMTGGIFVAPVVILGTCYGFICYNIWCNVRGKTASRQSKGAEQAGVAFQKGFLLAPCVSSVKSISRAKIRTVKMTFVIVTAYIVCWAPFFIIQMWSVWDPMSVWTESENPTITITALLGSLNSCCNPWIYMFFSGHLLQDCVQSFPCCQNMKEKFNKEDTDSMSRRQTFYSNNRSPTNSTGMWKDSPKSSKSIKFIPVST
readout label: pKi
Scale explanation: pKi corresponds to minus log10 of a concentration expressed in moles per litre.

Enter reported pKi observed with UniProt P37288 for C[C@H](O)c1nc(Cn2nc(-c3ccc(Cl)cc3)n(C[C@H](O)C(F)(F)F)c2=O)nn1-c1cccc(Cl)c1 [PECAVAPTAN]
8.88
